Molecular target: T1, human amylin 3(a) receptor (human calcitonin receptor co-expressed with RAMP-3) on BHK570/CRE-luc cells (human, UniProt P30988 25-474; O60896 24-148)
T1 sequence (looked up) 1: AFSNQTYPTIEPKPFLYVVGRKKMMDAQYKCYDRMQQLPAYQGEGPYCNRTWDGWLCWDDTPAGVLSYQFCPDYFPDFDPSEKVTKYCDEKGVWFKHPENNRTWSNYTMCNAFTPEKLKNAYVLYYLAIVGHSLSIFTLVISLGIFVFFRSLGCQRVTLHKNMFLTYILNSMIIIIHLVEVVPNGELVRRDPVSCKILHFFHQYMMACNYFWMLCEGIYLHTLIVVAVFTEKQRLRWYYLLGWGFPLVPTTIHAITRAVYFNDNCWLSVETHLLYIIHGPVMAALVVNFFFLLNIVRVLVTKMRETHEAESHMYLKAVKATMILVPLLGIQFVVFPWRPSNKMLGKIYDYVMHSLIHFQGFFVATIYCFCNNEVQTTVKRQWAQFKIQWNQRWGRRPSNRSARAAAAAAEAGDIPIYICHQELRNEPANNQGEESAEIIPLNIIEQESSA
T1 sequence (looked up) 2: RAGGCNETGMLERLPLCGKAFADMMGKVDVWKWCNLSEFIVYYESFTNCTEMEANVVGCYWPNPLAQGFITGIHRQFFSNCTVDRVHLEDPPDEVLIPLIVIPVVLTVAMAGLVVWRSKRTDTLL
Assay: cell-based or functional assay
Numbered stars: 1 amine (or outer) side, 2 acyl side, 3 side chain; on linkers, the order of the positions; unused ones are H or OH. Side chains are listed from the residue outwards. * marks the point of attachment. C20 diacid = O=C(O)CCCCCCCCCCCCCCCCCCC(=O)*; C18 diacid = O=C(O)CCCCCCCCCCCCCCCCC(=O)*; γGlu = O=C(O)[C@H](CCC(=O)[*:2])N[*:1]; C14 diacid = O=C(O)CCCCCCCCCCCCC(=O)*; AEEA = NCCOCCOCC(=O)O
MEASURED METRIC: hAmylin-R funct. EC50 (pM), tested with HSA
// note: answer is a bare numeric in pM

Past entries and their recorded results:
BINDER	VALUE OBSERVED
{C20 diacid-γGlu-AEEA-AEEA-AEEA-AEEA-AEEA}-ASELSTAALGRLSAELHELATLPRTETGSGSP-NH2 [[N-terminal(C20 diacid-gGlu-5xOEG), des1, 30S, 31G]mimylin]	66
{C14 diacid-γGlu}-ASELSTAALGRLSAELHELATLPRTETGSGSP-NH2 [[N-terminal(C14 diacid-gGlu), des1, 30S, 31G]mimylin]	4
Ac-ASELSTAALGRLSAK([γGlu-C20 diacid])LHELATLPRTETGSGSP-NH2 [[N-terminal(acetyl), des1, 16K(C20 diacid-gGlu), 30S, 31G]mimylin]	100
{C18 diacid-γGlu}-ASEVSTAVLGRLSAELHELATLPRTETGSGSP-NH2 [[N-terminal(C18 diacid-gGlu), des1, 5V, 9V, 30S, 31G]mimylin]	356
{C20 diacid-γGlu}-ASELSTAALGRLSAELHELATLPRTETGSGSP-NH2 [[N-terminal(C20 diacid-gGlu), des1, 30S, 31G]mimylin]	51
{C18 diacid}-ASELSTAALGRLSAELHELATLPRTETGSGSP-NH2 [[N-terminal(C18 diacid), des1, 30S, 31G]mimylin]	9

-- ask Identify hAmylin-R funct. EC50 (pM), tested with HSA associated with the binder {C18 diacid-γGlu}-ASELTTAVLGRLSAELHELATLPRTETGTGTP-NH2 [[N-terminal(C18 diacid-gGlu), des1, 6T, 9V, 30T, 31G, 32T]mimylin]
-- reply 52

-- ask Note hAmylin-R funct. EC50 (pM), tested with HSA for the binder shown: {C18 diacid-γGlu}-ASELTTAVLGRLEAELHELTTLPRTETGTGTP-NH2 [[N-terminal(C18 diacid-gGlu), des1, 6T, 9V, 14E, 21T, 30T, 31G, 32T]mimylin]
-- reply 157

-- ask State its hAmylin-R funct. EC50 (pM), tested with HSA for this binder: {C20 diacid-γGlu}-ASELSTAALGHLSAELHELATLPRTETGSGSP-NH2 [[N-terminal(C20 diacid-gGlu), des1, 12H, 30S, 31G]mimylin]
-- reply 230

Where do the numbers come from? From patent US20160272683A1.
